The measured values listed here are drawn from patent US7402589B2.

system: TNF-α; assay: TNF-α inhibition in lipopolysaccharide (LPS) stimulated human monocytic cells (THP-1); assay type: cell-based; conditions: LPS (1 μg/mL) stimulated THP-1 cells, 4 hours, human TNF-α by ELISA
Please provide measured pIC50 for the entries that follow.
The scale used: pIC50 is minus the common logarithm of the concentration in molar units.

Q: Consider the compound shown here: "O=C(NCc1ccccc1Cl)N(c1ccc(F)cc1)c1ccnc(NC2CCOCC2)n1" What is its recorded pIC50?
A: 7.80

Q: For the compound shown here, "COc1ccc(N(C(=O)NCc2ccccc2OC)c2ccnc(N[C@@H](C)C(C)(C)O)n2)cc1" , give the reported pIC50.
A: 7.82

Q: I would be grateful if you could share the reported pIC50 for "COc1ccc(N(C(=O)NCc2ccccc2C)c2ccnc(N[C@@H](C)C(C)(C)O)n2)cc1" .
A: 7.43

Q: Bench note: what pIC50 did "C[C@H](Nc1nccc(N(C(=O)NCc2ccccc2Cl)c2ccc(F)cc2)n1)C(C)(C)O" show?
A: 7.85

Q: What value of pIC50 has been reported for the following compound? "CCOc1ccc(N(C(=O)NCc2ccccc2Cl)c2ccnc(N[C@@H](C)COC)n2)cc1"
A: 7.25

Q: Recorded pIC50 of "COc1ccc(N(C(=O)NCc2ccccc2Cl)c2ccnc(N[C@@H](C)C(C)(C)O)n2)cc1" , please.
A: 8.05

Q: Requested read-out: pIC50. Entry: "COc1ccc(N(C(=O)NCc2ccccc2F)c2ccnc(N[C@@H](C)C(C)(C)O)n2)cc1"
A: 7.89
